Test system: LPS from E. coli (O55:B5)
Protocol Summary: Isothermal titration calorimetry (ITC), LPS binding
Run Parameters: compound (1 mM) into LPS (20 µM), 20 mM HEPES pH 7, 37 °C, mean and SD of three experiments
Positions of bridges follow the written chain, without caps; N, C: chain ends. Non-standard residues stand in square brackets, D forms with d. Residues, ends and D or L forms follow the SMILES beside them. *: point of attachment. dDab = NCC[C@@H](N)C(=O)O; Heptanoyl = CCCCCCC(=O)*; Dab = NCC[C@H](N)C(=O)O
Measured Attribute: ΔΔH, maximum enthalpy observed after subtraction of dilution control
Give the value; after it, write the unit.

CCCCCCC(=O)N[C@H](CCN)C(=O)N[C@@H](C(=O)N[C@H](CCN)C(=O)N[C@@H]1CCNC(=O)[C@@H]([C@H](C)O)NC(=O)[C@@H](CCN)NC(=O)[C@@H](CCN)NC(=O)[C@@H](CC(C)C)NC(=O)[C@H](Cc2ccccc2)NC(=O)[C@@H](CCN)NC1=O)[C@H](C)O [ent-PmxB4] (Heptanoyl-[dDab][dT][dDab][dDab][dDab]F[dL][dDab][dDab][dT]; lactam 4-C) ... -3.485 kcal/mol

Could you tell me ΔΔH, maximum enthalpy observed after subtraction of dilution control for each of these compounds? They are listed below.
1. CC(C)C[C@@H]1NC(=O)[C@@H](Cc2ccccc2)NC(=O)[C@H](CCN)NC(=O)[C@@H](NC(=O)[C@H](CCN)NC(=O)[C@@H](N)[C@@H](C)O)CCNC(=O)[C@H]([C@@H](C)O)NC(=O)[C@H](CCN)NC(=O)[C@H](CCN)NC1=O [PMBN, polymyxin B nonapeptide, reference compound] (H-T[Dab][Dab][Dab][dF]L[Dab][Dab]T; lactam 3-C (inferred); N-terminus assumed)
2. CCCCCCC(=O)N[C@@H](CCN)C(=O)N[C@H](C(=O)N[C@@H](CCN)C(=O)N[C@H]1CCNC(=O)[C@H]([C@@H](C)O)NC(=O)[C@H](CCN)NC(=O)[C@H](CCN)NC(=O)[C@H](CC(C)C)NC(=O)[C@@H](Cc2ccccc2)NC(=O)[C@H](CCN)NC1=O)[C@@H](C)O [PmxB4, polymyxin B4] (Heptanoyl-[Dab]T[Dab][Dab][Dab][dF]L[Dab][Dab]T; lactam 4-C)
3. CC(C)C[C@H]1NC(=O)[C@H](Cc2ccccc2)NC(=O)[C@@H](CCN)NC(=O)[C@H](NC(=O)[C@@H](CCN)NC(=O)[C@H](N)[C@H](C)O)CCNC(=O)[C@@H]([C@H](C)O)NC(=O)[C@@H](CCN)NC(=O)[C@@H](CCN)NC1=O [ent-PMBN] (H-[dT][dDab][dDab][dDab]F[dL][dDab][dDab][dT]; lactam 3-C)

1: -7.20 ± 0.19 kcal/mol; 2: -7.86 ± 0.10 kcal/mol; 3: -4.91 ± 0.03 kcal/mol

====

System: E. coli ATCC 25922 (smooth LPS)
Protocol Summary: NPN uptake assay (outer membrane disruption)
Format: cell-based
Run Parameters: NPN fluorescence after 1 h at RT, 5 mM HEPES pH 7.2 + 20 mM glucose, triplicates, result in words
Positions of bridges follow the written chain, without caps; N, C: chain ends. Non-standard residues stand in square brackets, D forms with d. Residues, ends and D or L forms follow the SMILES beside them. *: point of attachment. Heptanoyl = CCCCCCC(=O)*; Dab = NCC[C@H](N)C(=O)O
Measured Attribute: OM disruption (NPN uptake)

CCCCCCC(=O)N[C@@H](CCN)C(=O)N[C@H](C(=O)N[C@@H](CCN)C(=O)N[C@H]1CCNC(=O)[C@H]([C@@H](C)O)NC(=O)[C@H](CCN)NC(=O)[C@H](CCN)NC(=O)[C@H](CC(C)C)NC(=O)[C@@H](Cc2ccccc2)NC(=O)[C@H](CCN)NC1=O)[C@@H](C)O [PmxB4, polymyxin B4] (Heptanoyl-[Dab]T[Dab][Dab][Dab][dF]L[Dab][Dab]T; lactam 4-C) ... potent OM disruption
CC(C)C[C@@H]1NC(=O)[C@@H](Cc2ccccc2)NC(=O)[C@H](CCN)NC(=O)[C@@H](NC(=O)[C@H](CCN)NC(=O)[C@@H](N)[C@@H](C)O)CCNC(=O)[C@H]([C@@H](C)O)NC(=O)[C@H](CCN)NC(=O)[C@H](CCN)NC1=O [PMBN, polymyxin B nonapeptide, reference compound] (H-T[Dab][Dab][Dab][dF]L[Dab][Dab]T; lactam 3-C (inferred); N-terminus assumed) ... potent OM disruption

====

Test system: E. coli BW25113 (rough LPS)
Protocol Summary: NPN uptake assay (outer membrane disruption)
Assay type: cell-based
Run Parameters: NPN fluorescence after 1 h at RT, 5 mM HEPES pH 7.2 + 20 mM glucose, triplicates, result in words
Method: Bacteria were taken from glycerol stocks and grown in TSB overnight. Cultures were diluted either 50 or 100 times in Lysogeny Broth (LB) and grown at 37 °C to an OD600 of 0.5. […] NPN fluorescence was measured after 1 h of incubation at RT with λex 355 ± 20 nm and λem 420 ± 20 nm. The measured fluorescence signal was corrected for NPN fluorescence in the absence of compounds (bacteria in buffer + NPN) and presented as relative fluorescence units (RFUs).
Positions of bridges follow the written chain, without caps; N, C: chain ends. Non-standard residues stand in square brackets, D forms with d. Residues, ends and D or L forms follow the SMILES beside them. *: point of attachment. Heptanoyl = CCCCCCC(=O)*; Dab = NCC[C@H](N)C(=O)O
Measured Attribute: OM disruption (NPN uptake)

CCCCCCC(=O)N[C@@H](CCN)C(=O)N[C@H](C(=O)N[C@@H](CCN)C(=O)N[C@H]1CCNC(=O)[C@H]([C@@H](C)O)NC(=O)[C@H](CCN)NC(=O)[C@H](CCN)NC(=O)[C@H](CC(C)C)NC(=O)[C@@H](Cc2ccccc2)NC(=O)[C@H](CCN)NC1=O)[C@@H](C)O [PmxB4, polymyxin B4] (Heptanoyl-[Dab]T[Dab][Dab][Dab][dF]L[Dab][Dab]T; lactam 4-C) ... potent OM disruption
CC(C)C[C@@H]1NC(=O)[C@@H](Cc2ccccc2)NC(=O)[C@H](CCN)NC(=O)[C@@H](NC(=O)[C@H](CCN)NC(=O)[C@@H](N)[C@@H](C)O)CCNC(=O)[C@H]([C@@H](C)O)NC(=O)[C@H](CCN)NC(=O)[C@H](CCN)NC1=O [PMBN, polymyxin B nonapeptide, reference compound] (H-T[Dab][Dab][Dab][dF]L[Dab][Dab]T; lactam 3-C (inferred); N-terminus assumed) ... potent OM disruption
